Each recorded value in this set is attributed to the supplement of paper PMC10307832.

# System: LU99A
# TEST_METHOD_NOTES: relative viability (nuclei count vs DMSO), 5 days (fraction); higher = more cells survive
# REPORTED_CONDITIONS: first compound 1 µM

MOLECULE	relative viability
CCN(CC)CCCCNc1ncc2cc(-c3cc(OC)cc(OC)c3)c(NC(=O)NC(C)(C)C)nc2n1 + COc1cc2c(Oc3ccc(NC(=O)C4(C(=O)Nc5ccc(F)cc5)CC4)cc3F)ccnc2cc1OCCCN1CCOCC1 [Foretinib] (partner 0.25 µM)	0.782
CCN(CC)CCCCNc1ncc2cc(-c3cc(OC)cc(OC)c3)c(NC(=O)NC(C)(C)C)nc2n1 + C[C@@H](Oc1cc(-c2cnn(C3CCNCC3)c2)cnc1N)c1c(Cl)ccc(F)c1Cl [Crizotinib] (partner 1 µM)	0.484
CCN(CC)CCCCNc1ncc2cc(-c3cc(OC)cc(OC)c3)c(NC(=O)NC(C)(C)C)nc2n1 + N=C(N)NC(=N)NCCc1ccccc1 [Phenformin] (partner 250 µM)	0.756
CCN(CC)CCCCNc1ncc2cc(-c3cc(OC)cc(OC)c3)c(NC(=O)NC(C)(C)C)nc2n1 + CC(=O)c1c(C)c2cnc(Nc3ccc(N4CCNCC4)cn3)nc2n(C2CCCC2)c1=O [Palbociclib] (partner 0.5 µM)	0.338
CCN(CC)CCCCNc1ncc2cc(-c3cc(OC)cc(OC)c3)c(NC(=O)NC(C)(C)C)nc2n1 + CS(=O)(=O)CCNCc1ccc(-c2ccc3ncnc(Nc4ccc(OCc5cccc(F)c5)c(Cl)c4)c3c2)o1 [Lapatinib] (partner 2 µM)	0.93
O=c1cc(N2CCOCC2)oc2c(-c3cccc4c3sc3ccccc34)cccc12 + NC(=O)Nc1cc(-c2cccc(F)c2)sc1C(=O)N[C@H]1CCCNC1 [AZD7762] (partner 0.2 µM)	0.384
O=c1cc(N2CCOCC2)oc2c(-c3cccc4c3sc3ccccc34)cccc12 + CS(=O)(=O)CCNCc1ccc(-c2ccc3ncnc(Nc4ccc(OCc5cccc(F)c5)c(Cl)c4)c3c2)o1 [Lapatinib] (partner 2 µM)	1.07
CCN(CC)CCCCNc1ncc2cc(-c3cc(OC)cc(OC)c3)c(NC(=O)NC(C)(C)C)nc2n1 + CCNC(=O)c1noc(-c2cc(C(C)C)c(O)cc2O)c1-c1ccc(CN2CCOCC2)cc1 [Luminespib] (partner 0.01 µM)	0.27
CCN(CC)CCCCNc1ncc2cc(-c3cc(OC)cc(OC)c3)c(NC(=O)NC(C)(C)C)nc2n1 + CC1(C)CCC(c2ccc(Cl)cc2)=C(CN2CCN(c3ccc(C(=O)NS(=O)(=O)c4ccc(N[C@H](CCN5CCOCC5)CSc5ccccc5)c(S(=O)(=O)C(F)(F)F)c4)cc3)CC2)C1 [Navitoclax] (partner 0.5 µM)	0.69
CCN(CC)CCCCNc1ncc2cc(-c3cc(OC)cc(OC)c3)c(NC(=O)NC(C)(C)C)nc2n1 + CC(C)C[C@H](NC(=O)[C@H](Cc1ccccc1)NC(=O)c1cnccn1)B(O)O [Bortezomib] (partner 0.002 µM)	1.13
CCN(CC)CCCCNc1ncc2cc(-c3cc(OC)cc(OC)c3)c(NC(=O)NC(C)(C)C)nc2n1 + CS(=O)(=O)N1CCN(Cc2cc3nc(-c4cccc5[nH]ncc45)nc(N4CCOCC4)c3s2)CC1 [Pictilisib] (partner 1 µM)	0.277
